Listed below: pKd values for each entry.
tgt: T1, Kallikrein related peptidase 2 (hK2), soluble human protein (human, UniProt P20151 19-261)
T1 construct: the stated signal peptide (residues 1-18) is left out, the pro-peptide (19-24) is kept; also called KLK2; kallikrein-2
test: SPR, antibody captured on anti-Fc chip, soluble hK2 injected, 1:1 Langmuir fit
pKd: −log10 of the molar value.
observed.property: pKd

KL2B413 (scFv-LH-Fc) (Fc fusion, scFv (VL-linker-VH) fused to an Fc; also called scFv18; KL2B413_LH; not shown: The hinge and Fc of the scFv-LH-Fc) scFv: EIVLTQSPSFLSASVGDRVTITCRASQGISSYLSWYQQKPGKAPKLLIYATSTLQSGVPSRFSGSGSGTEFTLTISSLQPEDFATYYCQQLNSYPRTFGQGTKVEIKGGSEGKSSGSGSESKSTGGSEVQLVESGGGLVQPGGSLRLSCAASGFTFSSYWMTWVRQAPGKGLEWVANIKQDGSERYYVDSVKGRFTISRDNAKNSLYLQMNSLRAEDTAVYYCARDQNYDILTGHYGMDVWGQGTTVTVSS | 7.46
KL2B494 (Fab) (Fab, V domains shown) VH: QVQLVESGGGLVQPGGSLRLSCAASGFTFSHYAMSWVRQAPGKGLEWVSTIGGSGGSTYYADSVKGRFTISRDNSKNTLYLQMNSLRAEDTAVYYCAKPHIVMVTALLYDGMDVWGQGTMVTVSS VL: SSELTQPPSVSVAPGQTARITCGGNNIGSKSVHWYQQKPGQAPVLVVYDDSDRPSGIPERFSGSNSGNTATLTISRVEAGDEADYYCQVWDSSSDHVVFGGGTKLTVL | 10.28
KL2B242 (Fab) (Fab, V domains shown) VH: QVQLQESGPGLVKPSETLSLTCTVSGGSISSYYWSWLRQPAGSGLEWIGRLYVSGFTNYNPSLKSRVTLSLDPSRNQLSLKLSSVTAADTAVYYCAGDSGNYWGWFDPWGQGTLVTVSS VL: SYELTQPPSVSVSPGETASITCSGDQLGENYACWYQQKPGQSPVLVIYQDSKRPSGIPERFSGSNSGNTATLTISGTQALDEADYYCQAWDNSIVVFGGGTKLTVL | 10.40
KL2B30 (Fab) (Fab, V domains shown) VH: QVQLQESGPGLVKPSETLSLTCTVSGGSISSYYWSWIRQPPGKGLEWIGYIYYSGSTNYNPSLKSRVTISVDTSKNQFSLKLSSVTAADTAVYYCAGTTIFGVVTPNFYYGMDVWGQGTTVTVSS VL: DIQMTQSPSFLSASVGDRVTITCRASQGISSYLAWYQQKPGKAPKFLIYAASTLQSGVPSRFSGSGSGTEFTLTISSLQPEDFATYYCQQLNSYPLTFGGGTKVEIK | 9.34
